# Tested on: VCaP
# ASSAY METHOD TEXT: Antiproliferative activity against human VCaP cells treated at 12 hrs post cell seeding measured at 72 to 144 hrs post cell seeding by Cell-Titer Glo assay
# Assay type: functional, cell-based
PROPERTY: log10 IC50 (log10 of the value in nM)
Form field - Quantity: IC50; Unit: nM; Scale: log10

[[record]]
compound = "Cc1sc2c(c1C)C(c1ccc(Cl)cc1)=N[C@@H](CC(=O)OC(C)(C)C)c1nnc(C)n1-2"
value_observed = 1.08


Fill blank: measured log10 IC50 of the compound "CCN1C(=O)[C@@H](CC2CC2)Oc2cc(-c3c(C)noc3C)ccc21" is ____. 2.89

Check CCCCC1Oc2cc(-c3c(C)noc3C)ccc2NC1=O (stereo unspecified) too. 3.06

What do you get for Cc1noc(C)c1-c1ccc2c(c1)OC(CC(C)C)C(=O)N2 (stereo unspecified) ? 2.58

One more compound: Cc1noc(C)c1-c1ccc2c(c1)OC(CC1CC1)C(=O)N2 (stereo unspecified) 2.61

Another: "Cc1noc(C)c1-c1ccc2c(c1)O[C@H](CC(C)C)C(=O)N2" 2.53

Record: Cc1noc(C)c1-c1ccc2c(c1)OC(c1ccccc1)C(=O)N2 (stereo unspecified) 2.89

Please give the result for "Cc1noc(C)c1-c1ccc2c(c1)O[C@H](CC1CC1)C(=O)N2CCN1CCOCC1" too. 3.05

What do you get for "Cc1noc(C)c1-c1ccc2c(c1)O[C@H](CC1CC1)C(=O)N2" ? 2.66

Now this one: Cc1noc(C)c1-c1ccc2c(c1)OC(c1ccccc1F)C(=O)N2 (stereo unspecified) 2.41

----------
// reported ΔTm for each item listed
# SYSTEM NAME: Bromodomain-containing protein 2 (Homo sapiens)
# ASSAY METHOD TEXT: Binding affinity to His6-tagged human BRD2 bromodomain-1 (K77 to N194 residues) expressed in Escherichia coli BL21(DE3) assessed as change in melting temperature at 200 uM by SYPRO orange dye based fluorescence assay
Number in °C, nothing else.

Study these solved cases before continuing.
[[record]]
compound = "Cc1noc(C)c1-c1ccc2c(c1)O[C@H](CC(C)C)C(=O)N2"
value_observed = 6.6

[[record]]
compound = "CCN1C(=O)[C@@H](CC2CC2)Oc2cc(-c3c(C)noc3C)ccc21"
value_observed = 4.8

[[record]]
compound = "Cc1noc(C)c1-c1ccc2c(c1)OC(c1ccccc1)C(=O)N2 (configuration not stated)"
value_observed = 5.4


Quick one: ΔTm of "Cc1noc(C)c1-c1ccc2c(c1)O[C@H](CC1CC1)C(=O)N2" ? 5.7

Okay, and Cc1noc(C)c1-c1ccc2c(c1)OC(c1ccccc1F)C(=O)N2 (configuration not stated) ? 4.8

Repeat with "Cc1noc(C)c1-c1ccc2c(c1)O[C@H](CC1CC1)C(=O)N2CCN1CCOCC1" 4.8

"Cc1sc2c(c1C)C(c1ccc(Cl)cc1)=N[C@@H](CC(=O)OC(C)(C)C)c1nnc(C)n1-2" ? 7.5

----------
# SYSTEM NAME: Bromodomain-containing protein 3 (Homo sapiens)
# ASSAY METHOD TEXT: Binding affinity to His6-tagged human BRD3 bromodomain-2 expressed in Escherichia coli BL21(DE3) assessed as change in melting temperature at 200 uM by SYPRO orange dye based fluorescence assay
Lab note: compare ΔTm against 8 °C. Equal or greater, write T. Smaller, write F.

[[record]]
compound = "Cc1sc2c(c1C)C(c1ccc(Cl)cc1)=N[C@@H](CC(=O)OC(C)(C)C)c1nnc(C)n1-2"
qualitative_label = "T"

[[record]]
compound = "Cc1noc(C)c1-c1ccc2c(c1)O[C@H](CC1CC1)C(=O)N2"
qualitative_label = "F"

[[record]]
compound = "Cc1noc(C)c1-c1ccc2c(c1)OC(c1ccccc1F)C(=O)N2 (configuration not stated)"
qualitative_label = "T"

[[record]]
compound = "Cc1noc(C)c1-c1ccc2c(c1)O[C@H](CC1CC1)C(=O)N2CCN1CCOCC1"
qualitative_label = "F"

[[record]]
compound = "CCN1C(=O)[C@@H](CC2CC2)Oc2cc(-c3c(C)noc3C)ccc21"
qualitative_label = "F"


Next compound, please.
Is reported ΔTm greater than or equal to 8 °C here: Cc1noc(C)c1-c1ccc2c(c1)OC(c1ccccc1)C(=O)N2 (configuration not stated) T

----------
# SYSTEM NAME: Histone acetyltransferase KAT2B (Homo sapiens)
# ASSAY METHOD TEXT: Binding affinity to His6-tagged human PCAF (G715 to D831 residues) expressed in Escherichia coli BL21(DE3) assessed as change in melting temperature at 200 uM by SYPRO orange dye based fluorescence assay
PROPERTY: ΔTm (°C)
The figure you give is taken to be in °C; do not add the unit.

[[record]]
molecule = "Cc1noc(C)c1-c1ccc2c(c1)O[C@H](CC(C)C)C(=O)N2"
system_name = "Histone acetyltransferase KAT2B (Homo sapiens)"
property = "ΔTm"
value_observed = 0

[[record]]
molecule = "Cc1noc(C)c1-c1ccc2c(c1)O[C@H](CC1CC1)C(=O)N2CCN1CCOCC1"
system_name = "Histone acetyltransferase KAT2B (Homo sapiens)"
property = "ΔTm"
value_observed = 0

[[record]]
molecule = "CCN1C(=O)[C@@H](CC2CC2)Oc2cc(-c3c(C)noc3C)ccc21"
system_name = "Histone acetyltransferase KAT2B (Homo sapiens)"
property = "ΔTm"
value_observed = 0

[[record]]
molecule = "Cc1noc(C)c1-c1ccc2c(c1)O[C@H](CC1CC1)C(=O)N2"
system_name = "Histone acetyltransferase KAT2B (Homo sapiens)"
property = "ΔTm"
value_observed = 0

[[record]]
molecule = "Cc1noc(C)c1-c1ccc2c(c1)OC(c1ccccc1)C(=O)N2 (stereo unspecified)"
system_name = "Histone acetyltransferase KAT2B (Homo sapiens)"
property = "ΔTm"
value_observed = 0.3


Next:
Which ΔTm value is on record for Cc1noc(C)c1-c1ccc2c(c1)OC(c1ccccc1F)C(=O)N2 (stereo unspecified) ? 0

----------
# SYSTEM NAME: Histone-lysine N-methyltransferase ASH1L (Homo sapiens) (UniProt Q9NR48)
# ASSAY METHOD TEXT: Binding affinity to His6-tagged human ASH1L (E2433 to E2564 residues) expressed in Escherichia coli BL21(DE3) assessed as change in melting temperature at 200 uM by SYPRO orange dye based fluorescence assay
PROPERTY: ΔTm (°C)
Respond with the bare value in °C.

[[record]]
compound = "Cc1noc(C)c1-c1ccc2c(c1)OC(c1ccccc1)C(=O)N2 (configuration not stated)"
property = "ΔTm"
result_unit = "°C"
value_observed = -1.8

[[record]]
compound = "Cc1noc(C)c1-c1ccc2c(c1)O[C@H](CC(C)C)C(=O)N2"
property = "ΔTm"
result_unit = "°C"
value_observed = -1.8

[[record]]
compound = "Cc1noc(C)c1-c1ccc2c(c1)OC(c1ccccc1F)C(=O)N2 (configuration not stated)"
property = "ΔTm"
result_unit = "°C"
value_observed = -2.1


# lookup: ΔTm of "Cc1sc2c(c1C)C(c1ccc(Cl)cc1)=N[C@@H](CC(=O)OC(C)(C)C)c1nnc(C)n1-2" 0.3

// repeat for "Cc1noc(C)c1-c1ccc2c(c1)O[C@H](CC1CC1)C(=O)N2CCN1CCOCC1" and report -1.2

Same for "CCN1C(=O)[C@@H](CC2CC2)Oc2cc(-c3c(C)noc3C)ccc21" -1.8

Also check "Cc1noc(C)c1-c1ccc2c(c1)O[C@H](CC1CC1)C(=O)N2" -1.2

----------
# SYSTEM NAME: Bromodomain testis-specific protein (Homo sapiens) (UniProt Q58F21)
# ASSAY METHOD TEXT: Binding affinity to His6-tagged human BRDT bromodomain-1 (N21 to E137 residues) expressed in Escherichia coli BL21(DE3) assessed as change in melting temperature at 200 uM by SYPRO orange dye based fluorescence assay
PROPERTY: ΔTm (°C)
Number in °C, nothing else.

[[record]]
molecule = "Cc1noc(C)c1-c1ccc2c(c1)O[C@H](CC1CC1)C(=O)N2"
value_observed = 5.7

[[record]]
molecule = "Cc1noc(C)c1-c1ccc2c(c1)O[C@H](CC1CC1)C(=O)N2CCN1CCOCC1"
value_observed = 3.3

[[record]]
molecule = "CCN1C(=O)[C@@H](CC2CC2)Oc2cc(-c3c(C)noc3C)ccc21"
value_observed = 3.3

[[record]]
molecule = "Cc1noc(C)c1-c1ccc2c(c1)O[C@H](CC(C)C)C(=O)N2"
value_observed = 6.3

[[record]]
molecule = "Cc1sc2c(c1C)C(c1ccc(Cl)cc1)=N[C@@H](CC(=O)OC(C)(C)C)c1nnc(C)n1-2"
value_observed = 6.9

[[record]]
molecule = "Cc1noc(C)c1-c1ccc2c(c1)OC(c1ccccc1)C(=O)N2 (configuration not stated)"
value_observed = 4.8


Turning now to a further record.
I would be grateful if you could share the reported ΔTm for Cc1noc(C)c1-c1ccc2c(c1)OC(c1ccccc1F)C(=O)N2 (configuration not stated) . 4.8
